assay: Determination of kinetic solubility (pH 7.4); assay type: physicochemical; conditions: phosphate buffer, pH 7.4, aqueous buffer, kinetic from dmso stock, 50 mM phosphate buffer pH 7.4, read-out: Ksol, pH 7.4
Mark 0 (no) for solubility kinetic at 2 h values under 50 µg/mL, and 1 (yes) for everything at or above.

compound-structure-string	category-label
Cn1cnc(/C=C/C(=O)N2CCN(c3nc(OCC45CCCN4CCC5)nc4c3CCN(c3cccc5cccc(Cl)c35)C4)C[C@@H]2CC#N)c1	1 (yes)
Cc1cc(N)nc(-c2ncc3c(N4CCN(C(=O)/C=C/c5nc(C(C)C)no5)[C@@H](CC#N)C4)nc(OC[C@@]45CCCN4C[C@H](F)C5)nc3c2F)c1C(F)(F)F	1 (yes)
N#CC[C@H]1CN(c2nc(OCC34CCCN3CCC4)nc3c(F)c(-c4cccc5cccc(Cl)c45)ncc23)CCN1C(=O)/C=C/c1nc([C@H]2C[C@@H]2F)no1	1 (yes)
Cc1cc(/C=C/C(=O)N2CCN(c3nc(OC[C@@]45CCCN4C[C@H](F)C5)nc4c(F)c(-c5cccc(Cl)c5C(F)(F)F)ncc34)C[C@@H]2CC#N)nc(C)n1	0 (no)
C[C@@H]1CN(C/C=C/C(=O)N2CCN(c3nc(OC[C@@]45CCCN4C[C@H](F)C5)nc4c(F)c(-c5cccc6cccc(F)c56)ncc34)C[C@@H]2CC#N)C[C@@H](C)O1	1 (yes)
N#CC[C@H]1CN(c2nc(OCC34CCCN3CCC4)nc3c2CCN(c2cccc4cccc(Cl)c24)C3)CCN1C(=O)/C=C/c1nc(C(F)(F)F)no1	0 (no)
CO[C@H]1CCN(C/C=C/C(=O)N2CCN(c3nc(OC[C@@]45CCCN4C[C@H](F)C5)nc4c(F)c(-c5cccc(Cl)c5C(F)(F)F)ncc34)C[C@@H]2CC#N)C1	1 (yes)
CN1CC[C@@H]1/C=C/C(=O)N1CCN(c2nc(OC[C@@]34CCCN3C[C@H](F)C4)nc3c(F)c(-c4cccc(Cl)c4C(F)(F)F)ncc23)C[C@@H]1CC#N	1 (yes)
N#CC[C@H]1CN(c2nc(OC[C@@]34CCCN3C[C@H](F)C4)nc3c(F)c(-c4cccc5cccc(Cl)c45)ncc23)CCN1C(=O)/C=C/CN1CC[C@@H](F)C1	1 (yes)
CC(C)c1noc(/C=C/C(=O)N2CCN(c3nc(OC[C@@]45CCCN4C[C@H](F)C5)nc4c(F)c(-c5nc(N)cc6cccc(Cl)c56)ncc34)C[C@@H]2CC#N)n1	0 (no)
N#CC[C@H]1CN(c2nc(OCC34CCCN3CCC4)nc3c2CCN(c2cccc4cccc(Cl)c24)C3)CCN1C(=O)/C=C/CN1CC2COCC(C1)O2	1 (yes)
N#CC[C@H]1CN(c2nc(OC[C@@]34CCCN3C[C@H](F)C4)nc3c(F)c(-c4cccc5cccc(Cl)c45)ncc23)CCN1C(=O)/C=C/c1ccnc(C2CC2)n1	0 (no)
N#CC[C@H]1CN(c2nc(OCC34CCCN3CCC4)nc3c2CCN(c2cccc4cccc(Cl)c24)C3)CCN1C(=O)/C=C/c1nc(C2CC2)no1	0 (no)
N#CC[C@H]1CN(c2nc(OC[C@@]34CCCN3C[C@H](F)C4)nc3c(F)c(-c4cccc5ccc(F)c(F)c45)ncc23)CCN1C(=O)/C=C/CN1[C@@H]2CC[C@H]1COC2	1 (yes)
Cc1c(Cl)cccc1-c1ncc2c(N3CCN(C(=O)/C=C/CN4[C@@H]5CC[C@H]4COC5)[C@@H](CC#N)C3)nc(OC[C@@]34CCCN3C[C@H](F)C4)nc2c1F	1 (yes)
Cc1cc(N)nc([C@@H]2Cc3nc(OC[C@@]45CCCN4C[C@H](F)C5)nc(N4CCN(C(=O)/C=C/CN(C)C)[C@@H](CC#N)C4)c3C[C@H]2C)c1C(F)(F)F	1 (yes)
N#CC[C@H]1CN(c2nc(OC[C@@]34CCCN3C[C@H](F)C4)nc3c2CCN(c2cccc4cccc(Cl)c24)C3)CCN1C(=O)/C=C/c1nc(C(F)F)no1	0 (no)
N#CC[C@H]1CN(c2nc(OCC34CCCN3CCC4)nc3c2CCN(c2cccc4cccc(Cl)c24)C3)CCN1C(=O)/C=C/c1ccncn1	1 (yes)
N#CC[C@H]1CN(c2nc(OCC34CCCN3CCC4)nc3c2CCN(c2cccc4cccc(Cl)c24)C3)CCN1C(=O)/C=C/c1ncccn1	1 (yes)
C#Cc1c(F)ccc2cccc(-c3ncc4c(N5CCN(C(=O)/C=C/CN6CC7CC(C6)O7)[C@@H](CC#N)C5)nc(OC[C@@]56CCCN5C[C@H](F)C6)nc4c3F)c12	1 (yes)
N#CC[C@H]1CN(c2nc(OC[C@@]34CCCN3C[C@H](F)C4)nc3c2CCN(c2cccc4ccc(F)c(Cl)c24)C3)CCN1C(=O)/C=C/CN1CCOCC1	0 (no)
